Values from ChEMBL document CHEMBL4400571

assayed target: Orexin receptor type 2 (Homo sapiens, UniProt O43614)
Sequence (O43614 whole entry): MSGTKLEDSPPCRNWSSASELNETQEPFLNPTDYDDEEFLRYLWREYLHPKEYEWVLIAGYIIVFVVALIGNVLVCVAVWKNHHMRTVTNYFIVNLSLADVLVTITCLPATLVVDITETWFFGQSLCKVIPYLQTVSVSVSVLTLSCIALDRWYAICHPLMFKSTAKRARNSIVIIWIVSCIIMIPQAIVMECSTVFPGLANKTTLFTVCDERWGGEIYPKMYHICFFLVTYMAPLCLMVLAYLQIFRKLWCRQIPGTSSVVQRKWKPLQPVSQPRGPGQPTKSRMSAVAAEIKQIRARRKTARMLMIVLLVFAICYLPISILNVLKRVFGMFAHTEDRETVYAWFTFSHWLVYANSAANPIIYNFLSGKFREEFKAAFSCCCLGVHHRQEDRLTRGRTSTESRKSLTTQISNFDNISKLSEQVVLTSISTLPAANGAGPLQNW
assay procedure: Antagonist activity at human OX2 receptor expressed in CHOK1 cells assessed as inhibition of orexin-A-induced calcium mobilization preincubated for 15 mins followed by orexin-A addition and measured by FURA 2-AM dye based fluorescence assay
pKi: −log10 of the molar value.
Each record here notes measured pKi.

Consider the following illustrative entries.
>>> df
                                 cpd_smiles  quantity_measured  endpoint_result
0  COc1ccc2c(c1)[C@]13CCN(S(=O)(=O)c4ccccc4)[C@H](C2)C1=CC[C@H](N(C)C(=O)/C=C/c1ccoc1)C3                pKi           < 5.00
1  CN(C(=O)/C=C/c1ccoc1)[C@@H]1CC[C@@]2(O)[C@H]3Cc4ccccc4[C@@]2(CCN3S(=O)(=O)c2ccccc2)C1                pKi           < 5.00
2  COc1ccc2c(c1)[C@]13CCN(S(=O)(=O)c4ccccc4)[C@H](C2)[C@@H]1CC[C@H](N(C)C(=O)/C=C/c1ccoc1)C3                pKi             7.10
3  COc1ccc2c(c1)[C@]13CCN(S(=O)(=O)c4ccccc4)[C@H](C2)[C@]1(O)CC[C@@H](N(C)C(=O)/C=C/c1ccoc1)C3                pKi           < 5.00
4  CN(C(=O)/C=C/c1ccoc1)[C@@H]1CC[C@@]2(O)[C@H]3CC4=C(CCCC4)[C@@]2(CCN3S(=O)(=O)c2ccccc2)C1                pKi           < 5.00

Turning to the following compound.
Give the measured pKi of COc1ccc2c3c1O[C@H]1[C@H](N(C)C(=O)/C=C/c4ccoc4)CC[C@@]4(O)[C@@H](C2)N(S(=O)(=O)c2ccccc2)CC[C@]314 .
< 5.00
